Each recorded value in this set is attributed to patent US6015838A.

# EXPERIMENTAL DETAILS: Surface tension and critical micelle concentration (CMC) of aqueous surfactant solutions
# Assay type: physicochemical
# CONDITION DETAILS: Table 5; deionized water, at CMC
PARAMETER: Surf. Tens. (surface tension at the CMC) (dynes/cm)
// units = dynes/cm; emit number, no label

[[record]]
molecule = "O=C(O)C(F)(C(F)(F)F)C(F)(F)C(F)(F)C(F)(F)C(F)(F)C(F)(F)C(F)(F)C(F)(F)C(F)(F)F (stereo not drawn) [Example M17, C8 F17 CF(CF3)COO^- H4 N^+]"
test_value = 14.7


Recorded Surf. Tens. (surface tension at the CMC) for O=C(O)C(F)(C(F)(F)F)C(F)(F)C(F)(F)C(F)(F)C(F)(F)C(F)(F)F (stereo not drawn) [Example M21, C5 F11 CF(CF3)COO^- K^+] , please?
22.5

Recorded Surf. Tens. (surface tension at the CMC) for O=C(O)C(F)(C(F)(F)F)C(F)(F)C(F)(F)C(F)(F)C(F)(F)C(F)(F)C(F)(F)C(F)(F)F (stereo not drawn) [Example M23, C7 F15 CF(CF3)COO^- K^+] , please?
15.0
